Numbers sourced from patent US20150166663A1.

Some binders, each annotated with its measured A375M % Shifted Cells.
- TARGET OF ASSAY: human αV on parental A375M cells (αVβ3 and αVβ5) (human) (UniProt P06756)
- EXPERIMENT SUMMARY: FACS, supernatant, parental A375M cells (αVβ3 and αVβ5, no αVβ6)
Reply numerically in %, unit not repeated.

Would you please look over these solved cases?
Noted for sc 133 (antibody, V domains shown) VH: QVQLVQSGAEVKKPGASVKVSCKASGYTFTGYYMHWVRQAPGQGLEWMGWINPKSGDTNYAQKFQGRVTLTRDTSTSTAYMELSRLRSDDTAVYYCARRLDVWGQGTTVTVSS VL: QSVLTQPPSVSAAPGQKVTISCSGSSSNIGNNYVSWYQQLPGTAPKLLIYDNNKRPSGIPDRFSGSKSGTSATLGITGLQTGDEADYYCGTWNSSLSAGYVFGTGTKVTV : its A375M % Shifted Cells reads 24

Noted for sc 161 (antibody, V domains shown) VH: EVQLVQSGAEVKKPGESLKISCKGSGYSFTSYWIGWVRQMPGKGLEWMGIIYPGDSDTRYSPSFQGQVTISADKSISTAYLQWSSLKASDTAMYYCARHGIAAAGFYYYYMDVWGQGTTVTVSS VL: EIVLTQSPDTLSLSPGERASLSCRASQNVNRNYLVWYQQKPGQAPRLLIYGTSNRATGIPDRFSGSGSGTDFTLTISRLEPEDFAVYYCQQCGSLPFTFGPGTKVDIKR : its A375M % Shifted Cells reads 11

Further cases:
Noted for sc 320 (antibody, V domains shown) VH: EVQLVESGGGLVKPGGSLRLSCAASGYTFTNYIMHWVRQAPGKGLEWVSSISISSSYIYYADSVKGRFTISRDNAKNSLYLQMNSLRAEDTAVYYCARDPVPLERRDYYYGMDVWGQGTTVTVSS VL: QSVLTQPPSMSAAPGQKVTISCSGSSSNIGNNYVSWYQQLPGTAPKLLIYDNNKRPSGIPDRFSGSKSGTSATLGITGLQTGDEADYYCGTWDSSLSAGVFGGGTKLTVL : its A375M % Shifted Cells reads 15
